- protocol text: Cmax in Crl:CD(SD) rat at 10 mg/kg, po administered with solubilized reagent
- Type: ADME, organism-based
- Design: dose 10 mg/kg, route oral
- details: in vivo
experimental endpoint: Cmax
Reply with a number, then the unit it belongs to.

*Q* I'd like to know its Cmax. The molecule in question is "CC1(C)C[C@@H](c2ccccc2)Nc2c(C(=O)NC34CC5CC(CC(C5)C3)C4)cnn21"
*A* 237 ng/mL

====

Would you mind telling me the reported pIC50 of each entry?
- assayed system: Extracellular calcium-sensing receptor (Homo sapiens)
- Sequence (P41180 whole entry): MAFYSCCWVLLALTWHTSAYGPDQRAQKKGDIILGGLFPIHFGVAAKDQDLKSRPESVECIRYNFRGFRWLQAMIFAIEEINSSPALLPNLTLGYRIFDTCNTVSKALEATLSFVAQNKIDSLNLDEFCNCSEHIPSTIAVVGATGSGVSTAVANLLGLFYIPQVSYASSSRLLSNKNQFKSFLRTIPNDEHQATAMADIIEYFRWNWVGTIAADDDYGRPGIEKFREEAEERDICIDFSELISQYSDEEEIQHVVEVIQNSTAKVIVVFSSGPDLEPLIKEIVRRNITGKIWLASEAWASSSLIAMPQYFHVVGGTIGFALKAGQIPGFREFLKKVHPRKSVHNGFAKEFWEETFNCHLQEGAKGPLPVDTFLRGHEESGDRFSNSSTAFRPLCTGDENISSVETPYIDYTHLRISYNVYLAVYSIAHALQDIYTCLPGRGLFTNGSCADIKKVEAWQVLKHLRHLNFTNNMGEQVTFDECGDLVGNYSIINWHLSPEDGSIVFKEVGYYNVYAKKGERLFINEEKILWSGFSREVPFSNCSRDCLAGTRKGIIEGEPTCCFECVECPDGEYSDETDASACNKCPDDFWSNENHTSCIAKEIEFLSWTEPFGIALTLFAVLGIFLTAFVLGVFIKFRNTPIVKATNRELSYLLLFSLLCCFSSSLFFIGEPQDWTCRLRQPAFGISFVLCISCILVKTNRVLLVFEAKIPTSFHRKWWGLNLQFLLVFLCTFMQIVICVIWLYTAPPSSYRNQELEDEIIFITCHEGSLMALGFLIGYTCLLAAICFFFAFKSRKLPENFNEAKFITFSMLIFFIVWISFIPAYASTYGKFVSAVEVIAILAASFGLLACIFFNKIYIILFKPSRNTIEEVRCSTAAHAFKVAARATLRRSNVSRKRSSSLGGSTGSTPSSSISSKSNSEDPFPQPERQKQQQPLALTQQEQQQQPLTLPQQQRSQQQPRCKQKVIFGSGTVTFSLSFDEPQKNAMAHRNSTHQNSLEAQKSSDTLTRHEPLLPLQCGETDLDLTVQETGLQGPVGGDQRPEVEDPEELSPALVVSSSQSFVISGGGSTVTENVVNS
- protocol text: Antagonist activity at CaSR expressed in CHO cells assessed as [35S]-GTPgammaS binding by scintillation counting
One number for each entry, as −log10 of the molar value.

Below, 2 molecules whose answers are already recorded.
{"molecular string": "O=C(NC12CC3CC(CC(C3)C1)C2)c1cnn2c1N[C@H](c1cccc(Cl)c1)C[C@@H]2C(F)(F)F", "pIC50": 6.49}
{"molecular string": "C[C@H]1C[C@@H](c2ccccc2)Nc2c(C(=O)NC34CC5CC(CC(C5)C3)C4)cnn21", "pIC50": 7.12}

Now for the molecule whose pIC50 we want.
*Q* Notebook entry, Extracellular calcium-sensing receptor (Homo sapiens) assay: pIC50 of "O=C(NC12CC3CC(CC(C3)C1)C2)c1cnn2c1N[C@H](c1ccccc1Cl)C[C@@H]2C(F)(F)F" = ?
*A* 6.96

Cited source: ChEMBL document CHEMBL1287772
